- target.of.assay: Btk (Homo sapiens, UniProt Q06187)
- Construct: purified from insect cells as a full-length construct containing a N-terminal 6X-His tag; His6 (N); made in house; host or cells: insect cells (Method C)
- Sequence (Q06187 whole entry): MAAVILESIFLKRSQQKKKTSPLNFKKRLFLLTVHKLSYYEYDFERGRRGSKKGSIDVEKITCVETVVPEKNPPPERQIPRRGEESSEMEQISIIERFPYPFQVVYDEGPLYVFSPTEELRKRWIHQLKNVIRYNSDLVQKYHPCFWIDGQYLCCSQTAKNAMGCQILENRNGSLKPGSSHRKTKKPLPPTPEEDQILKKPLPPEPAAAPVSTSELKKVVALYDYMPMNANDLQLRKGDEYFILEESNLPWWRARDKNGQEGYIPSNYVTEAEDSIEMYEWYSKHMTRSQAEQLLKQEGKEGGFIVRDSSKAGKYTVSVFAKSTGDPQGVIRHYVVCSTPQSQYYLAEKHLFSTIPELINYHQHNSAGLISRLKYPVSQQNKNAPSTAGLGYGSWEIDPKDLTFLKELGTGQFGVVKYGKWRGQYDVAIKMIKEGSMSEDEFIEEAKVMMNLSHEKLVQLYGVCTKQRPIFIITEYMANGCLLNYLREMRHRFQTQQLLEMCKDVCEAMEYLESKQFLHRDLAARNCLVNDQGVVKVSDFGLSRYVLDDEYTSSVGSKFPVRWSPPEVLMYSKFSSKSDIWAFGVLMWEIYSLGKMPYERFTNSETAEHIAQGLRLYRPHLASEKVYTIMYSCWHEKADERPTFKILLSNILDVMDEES
- method.description: Btk in vitro inhibitory activity (one of Method A TR-FRET, Method B electrophoretic mobility shift, Method C radiometric filter binding)
- Type: biochemical
- experimental.setup: wild-type Btk; read-out: Btk-WT IC50
# IC50 annotations
Give just the numeric value; µM need not be written.

Below: 2 compounds and their reported IC50.
C=CC(=O)N1CC[C@@H](Nc2n[nH]c3nccc(-c4ccc(CNC(=O)c5ccccc5)c(F)c4)c23)C1 ... 0.015
CC(=O)N1CC[C@H](Nc2n[nH]c3nccc(-c4ccc(CNC(=O)c5nc(C(C)(C)C)no5)c(F)c4)c23)C1 ... 0.0113

Entry "C=CC(=O)N1CC[C@@H](Nc2n[nH]c3nccc(-c4ccc(CC(=O)Nc5noc(C(C)(C)C)n5)c(F)c4)c23)C1" — recorded IC50 = 0.00887
